Taken from paper PMC7156458.

For each entry below, report its Th-T assay plate reading, mean of three wells (Supplementary Fig. 47) value.
target: Aβ42 (Homo sapiens); assay: Th-T (thioflavin-T) assay of Aβ42 aggregation; assay type: biochemical; conditions: measurement M4; source data, Ab alone and No Ab as controls
Sequence (P05067 672-713): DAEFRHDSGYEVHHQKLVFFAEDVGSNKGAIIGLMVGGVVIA
Give the figure only, with no unit attached.

Q: Determine reported Th-T assay plate reading, mean of three wells (Supplementary Fig. 47) for C=C1CCC2C(C)(CC(=O)C=C(C)C)C(O)CCC2(C)C1Cc1c(O)c(C)c(C)oc1=O (stereo not shown) ; test system: Aβ42 (Homo sapiens).
A: 0.3847

Q: Determine reported Th-T assay plate reading, mean of three wells (Supplementary Fig. 47) for C=C1CCC2C(C)(CC(=O)C=C(C)C)C(O)CCC2(C)C1Cc1c(OC)oc(C)c(C)c1=O (stereo not shown) ; test system: Aβ42 (Homo sapiens).
A: 0.3444

Q: Determine reported Th-T assay plate reading, mean of three wells (Supplementary Fig. 47) for C=C1CC[C@H]2[C@]3(C)C[C@@H](C=C(C)C)O[C@H]3CC[C@]2(C)[C@@H]1Cc1c(OC)oc(CO)c(C)c1=O ; test system: Aβ42 (Homo sapiens).
A: 0.352

Q: Determine reported Th-T assay plate reading, mean of three wells (Supplementary Fig. 47) for C=C1CCC2C(C)(CCC=C(C)C)C(O)CCC2(C)C1Cc1c(OC)oc(C)c(C(=O)OC)c1=O (stereo not shown) ; test system: Aβ42 (Homo sapiens).
A: 0.2537

Q: Determine reported Th-T assay plate reading, mean of three wells (Supplementary Fig. 47) for C=C1CC[C@@H]2[C@](C)(CC[C@H]3O[C@H](C=C(C)C)C[C@@]23C)[C@@H]1Cc1c(OC)oc(CO)c(C(=O)OC)c1=O ; test system: Aβ42 (Homo sapiens).
A: 0.222

Q: Determine reported Th-T assay plate reading, mean of three wells (Supplementary Fig. 47) for C=C1CC[C@H]2[C@]3(C)C[C@H](C=C(C)C)O[C@H]3CC[C@]2(C)[C@@H]1Cc1c(O)c(C)c(C)oc1=O ; test system: Aβ42 (Homo sapiens).
A: 0.3664

Q: Determine reported Th-T assay plate reading, mean of three wells (Supplementary Fig. 47) for C=C1CC[C@H]2[C@]3(C)C[C@H](C=C(C)C)O[C@H]3CC[C@]2(C)[C@@H]1Cc1c(OC)oc(C)c(C)c1=O ; test system: Aβ42 (Homo sapiens).
A: 0.1943
